assaySystem: T1, human programmed cell death protein 1 (hPD-1) C93S (aa 24-167) (Homo sapiens, UniProt Q15116, C93S)
T1 construct: made as a fusion with a TEV site and human Fc; the Fc was cut off with TEV protease; source: Expi293F, purified (Protein A, TEV cleavage of Fc, SEC; monomer fractions); not shown: Fc (human), C-terminal, cleaved
T1 sequence (Q15116 24-167 C93S): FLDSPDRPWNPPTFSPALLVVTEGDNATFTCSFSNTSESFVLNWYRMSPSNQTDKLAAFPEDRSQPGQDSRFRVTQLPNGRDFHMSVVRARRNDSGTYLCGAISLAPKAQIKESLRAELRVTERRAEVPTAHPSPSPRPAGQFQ
methodSummary: SPR; Carterra LSA; Fab from the ammonium sulfate precipitate of the culture supernatant immobilised on a NiHC200M chip; hPD-1 (1-1024 nM) or mPD-1-Fc (4-1024 nM) as analyte, fourfold dilution series, no regeneration; HBS-EP pH 7.4, 25 °C; medians over the spots of a construct, KD = koff/kon
condition: one partner purified
pKd: −log10 of the molar value.

# binder, pKd
records = [
    ("toripalimab Fab H.G56A (Fab, V domains shown, heavy chain of Sm3 with this change; numbers count from the chain's first residue; as the light chain of Sm3; source: Brevibacillus, culture supernatant (ammonium sulfate precipitate); not shown: 6xHis, C-terminal, kept; 6xHN, C-terminal, kept) VH: QGQLVQSGAEVKKPGASVKVSCKASGYTFTDYEMHWVRQAPIHGLEWIGVIESETAGTAYNQKFKGRVTITADKSTSTAYMELSSLRSEDTAVYYCAREGITTVATTYYWYFDVWGQGTTVTVSS VL: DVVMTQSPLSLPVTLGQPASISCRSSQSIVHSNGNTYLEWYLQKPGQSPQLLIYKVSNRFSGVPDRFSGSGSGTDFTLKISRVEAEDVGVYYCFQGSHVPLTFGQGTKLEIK", "> 8.84"),
    ("toripalimab Fab L.F60A (Fab, V domains shown, as the heavy chain of Sm3; light chain of Sm3 with this change; numbers count from the chain's first residue; source: Brevibacillus, culture supernatant (ammonium sulfate precipitate); not shown: 6xHis, C-terminal, kept; 6xHN, C-terminal, kept) VH: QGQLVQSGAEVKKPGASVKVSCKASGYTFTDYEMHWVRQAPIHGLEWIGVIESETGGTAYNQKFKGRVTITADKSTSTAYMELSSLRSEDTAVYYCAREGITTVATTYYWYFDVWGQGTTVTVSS VL: DVVMTQSPLSLPVTLGQPASISCRSSQSIVHSNGNTYLEWYLQKPGQSPQLLIYKVSNRASGVPDRFSGSGSGTDFTLKISRVEAEDVGVYYCFQGSHVPLTFGQGTKLEIK", "> 9.17"),
    ("toripalimab Fab L.S28Y (Fab, V domains shown, as the heavy chain of Sm3; light chain of Sm3 with this change; numbers count from the chain's first residue; source: Brevibacillus, culture supernatant (ammonium sulfate precipitate); not shown: 6xHis, C-terminal, kept; 6xHN, C-terminal, kept) VH: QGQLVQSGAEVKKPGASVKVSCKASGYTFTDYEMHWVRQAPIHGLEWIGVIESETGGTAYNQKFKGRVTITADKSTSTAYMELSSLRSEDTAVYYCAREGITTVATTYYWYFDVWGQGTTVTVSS VL: DVVMTQSPLSLPVTLGQPASISCRSSQYIVHSNGNTYLEWYLQKPGQSPQLLIYKVSNRFSGVPDRFSGSGSGTDFTLKISRVEAEDVGVYYCFQGSHVPLTFGQGTKLEIK", "> 9.10"),
    ("toripalimab Fab H.D113A (Fab, V domains shown, heavy chain of Sm3 with this change; numbers count from the chain's first residue; as the light chain of Sm3; source: Brevibacillus, culture supernatant (ammonium sulfate precipitate); not shown: 6xHis, C-terminal, kept; 6xHN, C-terminal, kept) VH: QGQLVQSGAEVKKPGASVKVSCKASGYTFTDYEMHWVRQAPIHGLEWIGVIESETGGTAYNQKFKGRVTITADKSTSTAYMELSSLRSEDTAVYYCAREGITTVATTYYWYFAVWGQGTTVTVSS VL: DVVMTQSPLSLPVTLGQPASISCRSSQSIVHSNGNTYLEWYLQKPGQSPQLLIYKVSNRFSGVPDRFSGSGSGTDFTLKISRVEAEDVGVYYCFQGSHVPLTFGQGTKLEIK", "> 8.75"),
]
